- TEST_SYSTEM: human autotaxin (Homo sapiens)
- Construct: Conditioned media is collected from confluent Hep3B cells and concentrated 20-fold; endogenous in cells
- ASSAY_METHOD_TEXT: Human Autotaxin Assay (choline release from LPC)
- CONDITION_SUMMARY: ATX in concentrated conditioned media from Hep3B cells, substrate LPC 14:0 100 uM, absorbance at 555 nm
ENDPOINT_NAME: IC50

Examples from the recorded data:
> print(dat)
                    structure.smiles.string           result
1  N#C/C(=C\c1cn(Cc2ccc(C(F)(F)F)nc2)c2cc(Cl)ccc12)c1ccc(C(=O)O)cc1         ≤ 500 nM
2  N#C/C(=C\c1cn(Cc2ccc(F)cc2)c2ccc(F)cc12)c1ccc(C(=O)O)cc1  500 to 10000 nM
3  N#C/C(=C\c1cn(Cc2ccc(OC(F)(F)F)cc2)c2cc(Cl)ccc12)c1ccc(C(=O)O)cc1  500 to 10000 nM

The reported IC50 of the compound N#C/C(=C\c1cn(Cc2ccc(F)cc2)c2cc([N+](=O)[O-])ccc12)c1ccc(C(=O)O)cc1 was ≤ 500 nM

These entries and their values trace back to patent US9714240B2.
